Would you mind telling me the reported EC50 of PD-L1- based blockade assay for sdAbs of each entry?
Target: human PD-L1 expressed on CHO-K1 cells (human, UniProt Q9NZQ7 19-290)
Sequence (Q9NZQ7 19-290): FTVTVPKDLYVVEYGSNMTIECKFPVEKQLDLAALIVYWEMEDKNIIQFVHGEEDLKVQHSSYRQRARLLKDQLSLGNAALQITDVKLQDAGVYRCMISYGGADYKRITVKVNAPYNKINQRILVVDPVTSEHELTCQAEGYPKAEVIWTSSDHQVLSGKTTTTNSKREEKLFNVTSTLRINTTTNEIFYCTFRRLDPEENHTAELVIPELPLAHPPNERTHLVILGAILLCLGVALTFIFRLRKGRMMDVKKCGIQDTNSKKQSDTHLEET
Test: cell-based or functional assay
One number for each entry, in nM.

Examples from the recorded data:
binder: AS06703 sdAb (VHH) VHH: EVQLVESGGGLVRAGGSLRLSCAASGRTFITYAIGWFRQAPGKEREFVTAINWSGSMTSYADSVKGRFTISRDNNKNTVYLQMNSLKPEDTALYYCAAHLGAIAPMSQSVYDYWGQGTQVTVSS
observed: 15

binder: AS11947 sdAb (VHH) VHH: DVQLVESGGGLVQAGDSLRLTCSASGRTFISYAVGWFRQAPGTEREFVAGIRWNGISTDYTDSVKGRFTISRDNAKNTVYLQMNSLKPEDTAIYYCAAHRTIATIPNKYEYDHWGQGTQVTVSS
observed: 77.2

binder: AS06775 sdAb (VHH) VHH: QVQLVESGGGLVQAGDSLRLSCAASGRTFLTLAVGWFRQAPGTEREFVAGIRWSGSGTDYADSVKGRFTISRDNAKNTVYLQMNSLKPEDTAVYYCAAHTTIATIPEKYEYEYWGRGTQVTVSS
observed: 75.5

Please look at the following binder next.
// query Dear colleague, I am looking for the recorded EC50 of PD-L1- based blockade assay for sdAbs of the following binder: AS11948 sdAb (VHH) VHH: EVQLVESGGGLVQAGDSLRLSCVASGRTFVTYGMGWFRQAPGKEREFVAAINWSGSMTSYGDSVKGRFAISRDNAKNTVYLQMNSLKPEDTAVYYCAAALGAVVYTTREPYTYWGRGTQVTVSS
// result 25.2

meta.source: patent US20210221891A1
